# Test system: HeLa Kyoto
# procedure_details: melting temperature (median over replicates), in situ; higher = more thermally stable
# stated_conditions: cell cycle stage: mitosis
Each entry below lists one item and its recorded melting temperature value.
A number alone suffices; assume °C.

Example entries begin here.
MAGRGGAARPNGPAAGNKICQFKLVLLGESAVGKSSLVLRFVKGQFHEYQESTIGAAFLTQTVCLDDTTVKFEIWDTAGQERYHSLAPMYYRGAQAAIVVYDITNTDTFARAKNWVKELQRQASPNIVIALAGNKADLASKRAVEFQEAQAYADDNSLLFMETSAKTAMNVNEIFMAIAKKLPKNEPQNATGAPGRNRGVDLQENNPASRSQCCSN [RAB5C]    59.4
MDGTRTSLDIEEYSDTEVQKNQVLTLEEWQDKWVNGKTAFHQEQGHQLLKKHLDTFLKGKSGLRVFFPLCGKAVEMKWFADRGHSVVGVEISELGIQEFFTEQNLSYSEEPITEIPGTKVFKSSSGNISLYCCSIFDLPRTNIGKFDMIWDRGALVAINPGDRKCYADTMFSLLGKKFQYLLCVLSYDPTKHPGPPFYVPHAEIERLFGKICNIRCLEKVDAFEERHKSWGIDCLFEKLYLLTEK [TPMT]    54

Under HeLa Kyoto: melting temperature value of MRLLPRLLLLLLLVFPATVLFRGGPRGLLAVAQDLTEDEETVEDSIIEDEDDEAEVEEDEPTDLVEDKEEEDVSGEPEASPSADTTILFVKGEDFPANNIVKFLVGFTNKGTEDFIVESLDASFRYPQDYQFYIQNFTALPLNTVVPPQRQATFEYSFIPAEPMGGRPFGLVINLNYKDLNGNVFQDAVFNQTVTVIEREDGLDGETIFMYMFLAGLGLLVIVGLHQLLESRKRKRPIQKVEMGTSSQNDVDMSWIPQETLNQINKASPRRLPRKRAQKRSVGSDE [SSR1] ? 58.8

* * *

Below, each entry is listed with its recorded melting temperature.
# Test system: HeLa Kyoto
# procedure_details: melting temperature (median over replicates), in situ; higher = more thermally stable
# stated_conditions: cell cycle stage: mitosis
Supply the numeric figure in °C, leaving out any unit text.

MNSSTSTMSEEPDALSVVNQLRDLAADPLNRRAIVQDQGCLPGLILFMDHPNPPVVHSALLALRYLAECRANREKMKGELGMMLSLQNVIQKTTTPGETKLLASEIYDILQSSNMADGDSFNEMNSRRRKAQFFLGTTNKRAKTVVLHIDGLDDTSRRNLCEEALLKIKGVISFTFQMAVQRCVVRIRSDLKAEALASAIASTKVMKAQQVVKSESGEEMLVPFQDTPVEVEQNTELPDYLPEDESPTKEQDKAVSRVGSHPEGGASWLSTAANFLSRSFYW [ARMC1]    50.8

Request - read-out melting temperature | tested on HeLa Kyoto | sequence MAALGEPVRLERDICRAIELLEKLQRSGEVPPQKLQALQRVLQSEFCNAVREVYEHVYETVDISSSPEVRANATAKATVAAFAASEGHSHPRVVELPKTEEGLGFNIMGGKEQNSPIYISRIIPGGIADRHGGLKRGDQLLSVNGVSVEGEHHEKAVELLKAAQGKVKLVVRYTPKVLEEMESRFEKMRSAKRRQQT [LIN7C] 51.5

Missing value: melting temperature, HeLa Kyoto, entry MATLRRLREAPRHLLVCEKSNFGNHKSRHRHLVQTHYYNYRVSFLIPECGILSEELKNLVMNTGPYYFVKNLPLHELITPEFISTFIKKGSCYALTYNTHIDEDNTVALLPNGKLILSLDKDTYEETGLQGHPSQFSGRKIMKFIVSIDLMELSLNLDSKKYERISWSFKEKKPLKFDFLLAWHKTGSEESTMMSYFSKYQIQEHQPKVALSTLRDLQCPVLQSSELEGTPEVSCRALELFDWLGAVFSNVDLNNEPNNFISTYCCPEPSTVVAKAYLCTITGFILPEKICLLLEHLCHYFDEPKLAPWVTLSVQGFADSPVSWEKNEHGFRKGGEHLYNFVIFNNQDYWLQMAVGANDHCPP [RPP40] . Fill in? 56.5

What is its melting temperature for HeLa Kyoto? Entry: MRPGAPGPLWPLPWGALAWAVGFVSSMGSGNPAPGGVCWLQQGQEATCSLVLQTDVTRAECCASGNIDTAWSNLTHPGNKINLLGFLGLVHCLPCKDSCDGVECGPGKACRMLGGRPRCECAPDCSGLPARLQVCGSDGATYRDECELRAARCRGHPDLSVMYRGRCRKSCEHVVCPRPQSCVVDQTGSAHCVVCRAAPCPVPSSPGQELCGNNNVTYISSCHMRQATCFLGRSIGVRHAGSCAGTPEEPPGGESAEEEENFV [FSTL3] 54.8

Give HeLa Kyoto melting temperature for MAAARATTPADGEEPAPEAEALAAARERSSRFLSGLELVKQGAEARVFRGRFQGRAAVIKHRFPKGYRHPALEARLGRRRTVQEARALLRCRRAGISAPVVFFVDYASNCLYMEEIEGSVTVRDYIQSTMETEKTPQGLSNLAKTIGQVLARMHDEDLIHGDLTTSNMLLKPPLEQLNIVLIDFGLSFISALPEDKGVDLYVLEKAFLSTHPNTETVFEAFLKSYSTSSKKARPVLKKLDEVRLRGRKRSMVG [TP53RK] 53

* * *

# System: HeLa Kyoto
# procedure_details: melting temperature (median over replicates), in situ; higher = more thermally stable
# stated_conditions: cell cycle stage: G1/S
experimental_endpoint: melting temperature

MAVESRVTQEEIKKEPEKPIDREKTCPLLLRVFTTNNGRHHRMDEFSRGNVPSSELQIYTWMDATLKELTSLVKEVYPEARKKGTHFNFAIVFTDVKRPGYRVKEIGSTMSGRKGTDDSMTLQSQKFQIGDYLDIAITPPNRAPPPSGRMRPY [SAP18]    47.5 °C
MDPLFQQTHKQVHEIQSCMGRLETADKQSVHIVENEIQASIDQIFSRLERLEILSSKEPPNKRQNARLRVDQLKYDVQHLQTALRNFQHRRHAREQQERQREELLSRTFTTNDSDTTIPMDESLQFNSSLQKVHNGMDDLILDGHNILDGLRTQRLTLKGTQKKILDIANMLGLSNTVMRLIEKRAFQDKYFMIGGMLLTCVVMFLVVQYLT [GOSR2]    51.8 °C
MAEQLSPGKAVDQVCTFLFKKPGRKGAAGRRKRPACDPEPGESGSSSDEGCTVVRPEKKRVTHNPMIQKTRDSGKQKAAYGDLSSEEEEENEPESLGVVYKSTRSAKPVGPEDMGATAVYELDTEKERDAQAIFERSQKIQEELRGKEDDKIYRGINNYQKYMKPKDTSMGNASSGMVRKGPIRAPEHLRATVRWDYQPDICKDYKETGFCGFGDSCKFLHDRSDYKHGWQIERELDEGRYGVYEDENYEVGSDDEEIPFKCFICRQSFQNPVVTKCRHYFCESCALQHFRTTPRCYVCDQQTNGVFNPAKELIAKLEKHRATGEGGASDLPEDPDEDAIPIT [RNF113A]    55.6 °C

Next:
Dear colleague, I am looking for the recorded melting temperature of the following sequence: MARSVRVLVDMDGVLADFEAGLLRGFRRRFPEEPHVPLEQRRGFLAREQYRALRPDLADKVASVYEAPGFFLDLEPIPGALDAVREMNDLPDTQVFICTSPLLKYHHCVGEKYRWVEQHLGPQFVERIILTRDKTVVLGDLLIDDKDTVRGQEETPSWEHILFTCCHNRHLVLPPTRRRLLSWSDNWREILDSKRGAAQRE [NT5C] 55.9 °C

* * *

# Tested on: HeLa Kyoto
# procedure_details: thermal stability score vs G1/S (z-score of summed log2 fold changes over temperatures); higher = more thermally stable than in G1/S
# stated_conditions: cell cycle stage: mitosis
Attribute: thermal stability score
Could you keep your reply to the number by itself?

MGKVRGLRARVHQAAVRPKGEAAPGPAPPAPEATPPPASAAGKDWAFINTNIFARTKIDPSALVQKLELDVRSVTSVRRGEAGSSARSVPSIRRGAEAKTVLPKKEKMKLRREQWLQKIEAIKLAEQKHREERRRRATVVVGDLHPLRDALPELLGLEAGSRRQARSRESNKPRPSELSRMSAAQRQQLLEEERTRFQELLASPAYRASPLVAIGQTLARQMQLEDGGQL [FAM207A]    0.618
MSEPIRVLVTGAAGQIAYSLLYSIGNGSVFGKDQPIILVLLDITPMMGVLDGVLMELQDCALPLLKDVIATDKEDVAFKDLDVAILVGSMPRREGMERKDLLKANVKIFKSQGAALDKYAKKSVKVIVVGNPANTNCLTASKSAPSIPKENFSCLTRLDHNRAKAQIALKLGVTANDVKNVIIWGNHSSTQYPDVNHAKVKLQGKEVGVYEALKDDSWLKGEFVTTVQQRGAAVIKARKLSSAMSAAKAICDHVRDIWFGTPEGEFVSMGVISDGNSYGVPDDLLYSFPVVIKNKTWKFVEGLPINDFSREKMDLTAKELTEEKESAFEFLSSA [MDH1]    0.036

Attention now turns to another entry.
For the sequence MAAGTAAALAFLSQESRTRAGGVGGLRVPAPVTMDSFFFGCELSGHTRSFTFKVEEEDDAEHVLALTMLCLTEGAKDECNVVEVVARNHDHQEIAVPVANLKLSCQPMLSLDDFQLQPPVTFRLKSGSGPVRITGRHQIVTMSNDVSEEESEEEEEDSDEEEVELCPILPAKKQGGRP [NPM3] , what thermal stability score is on record? -2.29
